# system-name: T1, human IL-12 (human, UniProt P29460 23-328; P29459 23-219)
# T1 construct: Recombinant (Peprotech); FLAG-tagged IL-12 in the flow cytometry assays, biotinylated in the IL-12Rβ2 assay; also called hIL-12
# T1 sequence 1: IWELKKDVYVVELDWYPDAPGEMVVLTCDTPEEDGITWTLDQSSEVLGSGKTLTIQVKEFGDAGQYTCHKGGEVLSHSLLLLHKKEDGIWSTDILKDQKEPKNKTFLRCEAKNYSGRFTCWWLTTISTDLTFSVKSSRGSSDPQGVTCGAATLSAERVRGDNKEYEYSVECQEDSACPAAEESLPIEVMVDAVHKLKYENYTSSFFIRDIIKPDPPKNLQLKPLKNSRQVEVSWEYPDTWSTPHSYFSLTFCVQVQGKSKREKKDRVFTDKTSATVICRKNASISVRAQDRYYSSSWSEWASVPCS
# T1 sequence 2: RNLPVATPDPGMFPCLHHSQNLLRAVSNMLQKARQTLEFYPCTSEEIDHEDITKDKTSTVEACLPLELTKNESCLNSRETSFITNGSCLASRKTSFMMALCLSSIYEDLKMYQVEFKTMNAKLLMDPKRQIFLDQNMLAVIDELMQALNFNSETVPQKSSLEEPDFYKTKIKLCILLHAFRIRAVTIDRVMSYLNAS
# assay-method-text: SPR, IgG on Protein A
reported-metric: kon (M⁻¹ s⁻¹)
Quick reminder: number only, in M⁻¹ s⁻¹, skip the unit.

Reference set, count: 3
{"binder": "Antibody 4 (antibody, human IgG1, kappa, V domains shown, Antibody 1 with heavy chain M34L) VH: EVQLQQSGADLVRSGASIKLSCTASGFNIKDYYLHWVKQRPEQGLEWIGWIDPENGDTEYAPKFQGKATMTADTSSNTAYLQLSSLTSEDTAVYYCNACKELRYFDVWGAGTTVTVSS VL: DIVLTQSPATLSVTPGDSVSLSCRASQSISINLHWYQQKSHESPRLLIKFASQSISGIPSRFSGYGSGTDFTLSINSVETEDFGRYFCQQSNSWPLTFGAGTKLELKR", "kon [M⁻¹ s⁻¹]": "1.54e+06"}
{"binder": "Antibody 1 (antibody, human IgG1, kappa, V domains shown, Chimeric PMA204, human IgG1/kappa) VH: EVQLQQSGADLVRSGASIKLSCTASGFNIKDYYMHWVKQRPEQGLEWIGWIDPENGDTEYAPKFQGKATMTADTSSNTAYLQLSSLTSEDTAVYYCNACKELRYFDVWGAGTTVTVSS VL: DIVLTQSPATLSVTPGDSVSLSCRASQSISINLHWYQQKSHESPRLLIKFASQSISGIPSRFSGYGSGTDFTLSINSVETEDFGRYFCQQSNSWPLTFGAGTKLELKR", "kon [M⁻¹ s⁻¹]": "1.67e+06"}
{"binder": "Antibody 7 (antibody, human IgG1, kappa, V domains shown, Antibody 1 with heavy chain C95N) VH: EVQLQQSGADLVRSGASIKLSCTASGFNIKDYYMHWVKQRPEQGLEWIGWIDPENGDTEYAPKFQGKATMTADTSSNTAYLQLSSLTSEDTAVYYCNANKELRYFDVWGAGTTVTVSS VL: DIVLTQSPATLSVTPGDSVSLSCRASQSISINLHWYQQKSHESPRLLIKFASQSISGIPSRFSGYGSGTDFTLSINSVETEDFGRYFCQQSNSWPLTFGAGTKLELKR", "kon [M⁻¹ s⁻¹]": "1.82e+06"}

Input: If you can, please state the reported kon value of Antibody 3 (antibody, human IgG1, kappa, V domains shown, Antibody 1 with light chain W94F) VH: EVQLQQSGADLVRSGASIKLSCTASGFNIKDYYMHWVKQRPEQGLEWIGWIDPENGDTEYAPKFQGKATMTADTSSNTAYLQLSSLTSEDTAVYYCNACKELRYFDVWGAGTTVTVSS VL: DIVLTQSPATLSVTPGDSVSLSCRASQSISINLHWYQQKSHESPRLLIKFASQSISGIPSRFSGYGSGTDFTLSINSVETEDFGRYFCQQSNSFPLTFGAGTKLELKR .
Output: 2.15e+06
